# target.under.test: UniProt Q9WTR4
# assay.name: Norepinephrine reuptake ([^3H]norepinephrine uptake) inhibition in rat brain synaptosomes
# condition.parameters: read-out: NET Uptake IC50; mean ± S.D., n = 3
measured.property: pIC50
Conceptually, pIC50 converts a concentration in mol/L into minus its log10.

Some compounds with recorded pIC50:
>>> result_number("CS(=O)(=O)Nc1ccc(-c2nc(NCC(c3ccccc3)c3ccncc3)c3ccccc3n2)cc1 (centres unmarked)")
7.36
>>> result_number("Cl.Fc1ccc2c(NCC(c3ccccc3)c3ccccc3)nc(-c3ccc4nccn4c3)nc2c1 [compound 124, Hydrochloride]")
7.03
>>> result_number("c1ccc(C(CNc2nc(-c3ccc4[nH]ccc4c3)nc3ccccc23)c2ccccc2)cc1")
6.54

// query Item under review: Cc1cc2nccn2cc1-c1nc(NCC(c2ccccc2)c2ccccc2)c2ccccc2n1 . Reported pIC50?
// result 7.68

// query Now give it for Cc1cc2nccn2cc1-c1nc(NCC(c2ccccc2)c2ccc[nH]2)c2ccccc2n1 (centres unmarked) too.
// result 7.96

// query Okay, and Cc1cc(NS(C)(=O)=O)ccc1-c1nc(NCC(c2ccccc2)c2ccccc2)c2ccccc2n1 ?
// result 6.84

// query Another compound to check: CN(C)c1ncc(-c2nc(NCC(c3ccccc3)c3ccccc3)c3ccccc3n2)cn1
// result 6.74

// query Ok, now c1ccc(C(CNc2nc(-c3cnc4nccn4c3)nc3ccccc23)C2CCCCC2)cc1 (centres unmarked)
// result 7.02

// query Can you handle CN(C)c1ccc(-c2nc(NCC(c3ccccc3)c3ccccc3)c3ccccc3n2)cc1 next?
// result 6.84

// query For Cn1cc2cc(-c3nc(NCC(c4ccccc4)c4ccccc4)c4ccccc4n3)ccc2n1 then?
// result 6.64
